System: HDQ-P1
Experiment: drug sensitivity score (DSS), CellTiter-Blue viability (DSS (AUC-based score)); higher = stronger viability inhibition; extreme values may be limits of the assay
Conditions: incubation time: 72 h
Entries and their drug sensitivity score values follow.
Reply: number alone, nothing else.

Examples with their reported drug sensitivity score follow.
Exercise: Which measured drug sensitivity score belongs to "CO[C@@H](C(=O)N1Cc2[nH]nc(NC(=O)c3ccc(N4CCN(C)CC4)cc3)c2C1)c1ccccc1" , tested on HDQ-P1?
Solution: 14.3

Exercise: Which measured drug sensitivity score belongs to "C[C@]12O[C@H](C[C@]1(O)CO)n1c3ccccc3c3c4c(c5c6ccccc6n2c5c31)CNC4=O" , tested on HDQ-P1?
Solution: 0

Exercise: Which measured drug sensitivity score belongs to "c1cc(CN2CCCNCCNCCCNCC2)ccc1CN1CCCNCCNCCCNCC1" , tested on HDQ-P1?
Solution: 0

Exercise: Which measured drug sensitivity score belongs to "CS(=O)(=O)N1CCN(Cc2cc3nc(-c4cccc5[nH]ncc45)nc(N4CCOCC4)c3s2)CC1" , tested on HDQ-P1?
Solution: 18.3

Note: attention shifts to another entry.
Exercise: Which measured drug sensitivity score belongs to "CC[C@@]1(O)C(=O)OCc2c1cc1n(c2=O)Cc2cc3c(CN(C)C)c(O)ccc3nc2-1" , tested on HDQ-P1?
Solution: 0.903

====

Entries and their normalised response values follow.
System: HCC1599
Assay: normalised response (% of control), CellTiter-Glo; higher = more viable cells (100 = DMSO, 0 = benzethonium chloride kill control)
Settings: incubation time: 72 h
Reply with just the number (in %).

Exercise: Which measured normalised response belongs to CO[C@@H](C(=O)N1Cc2[nH]nc(NC(=O)c3ccc(N4CCN(C)CC4)cc3)c2C1)c1ccccc1 [Danusertib] (10000 nM) , tested on HCC1599?
Solution: 78.5

Exercise: Which measured normalised response belongs to C[C@]12O[C@H](C[C@]1(O)CO)n1c3ccccc3c3c4c(c5c6ccccc6n2c5c31)CNC4=O [Lestaurtinib] (1000 nM) , tested on HCC1599?
Solution: 24.3

Note: attention shifts to another entry.
Exercise: Which measured normalised response belongs to Cc1nc(Nc2ncc(C(=O)Nc3c(C)cccc3Cl)s2)cc(N2CCN(CCO)CC2)n1 [Dasatinib] (1000 nM) , tested on HCC1599?
Solution: 97.7

====

Entries and their normalised response values follow.
System: MFM-223
Experiment: normalised response (% of control), CellTiter-Glo; higher = more viable cells (100 = DMSO, 0 = benzethonium chloride kill control)
Conditions: incubation time: 72 h
Reply with just the number (in %).

Exercise: Which measured normalised response belongs to COc1cc(CCc2cc(NC(=O)c3ccc(N4CC(C)NC(C)C4)cc3)n[nH]2)cc(OC)c1 (stereo not drawn) [AZD4547] (1000 nM) , tested on MFM-223?
Solution: 53.3

Exercise: Which measured normalised response belongs to O=C(Nc1c[nH]nc1-c1nc2ccc(CN3CCOCC3)cc2[nH]1)NC1CC1 [AT9283] (1000 nM) , tested on MFM-223?
Solution: 75.5

Exercise: Which measured normalised response belongs to O=C1c2c(O)ccc(O)c2C(=O)c2c(NCCNCCO)ccc(NCCNCCO)c21 [Mitoxantrone] (1000 nM) , tested on MFM-223?
Solution: 100

====

Tested on: CAL-148
Assay: normalised response (% of control), CellTiter-Glo; higher = more viable cells (100 = DMSO, 0 = benzethonium chloride kill control)
Details: incubation time: 72 h
Entries and their normalised response values follow.
Your reply should be a number followed by the unit it is expressed in.

Examples with their reported normalised response follow.
Exercise: Recorded normalised response for COc1cc(CCc2cc(NC(=O)c3ccc(N4CC(C)NC(C)C4)cc3)n[nH]2)cc(OC)c1 (stereo not drawn) [AZD4547] (10 nM) , please?
Solution: 99.5%

Exercise: Recorded normalised response for Cn1cc(CNCC2CCN(c3ncc(C(=O)NO)cn3)CC2)c2ccccc21 [Quisinostat] (10 nM) , please?
Solution: 87.6%

Exercise: Recorded normalised response for CCN(CC)CCNC(=O)c1c(C)[nH]c(/C=C2\C(=O)Nc3ccc(F)cc32)c1C [Sunitinib] (10 nM) , please?
Solution: 106%

Exercise: Recorded normalised response for CS(=O)(=O)N1CCN(Cc2cc3nc(-c4cccc5[nH]ncc45)nc(N4CCOCC4)c3s2)CC1 [Pictilisib] (100 nM) , please?
Solution: 98.4%

Next:
Exercise: Recorded normalised response for CO[C@@H](C(=O)N1Cc2[nH]nc(NC(=O)c3ccc(N4CCN(C)CC4)cc3)c2C1)c1ccccc1 [Danusertib] (100 nM) , please?
Solution: 57.7%

Exercise: Recorded normalised response for Cc1ccc(Nc2nccc(N(C)c3ccc4c(C)n(C)nc4c3)n2)cc1S(N)(=O)=O [Pazopanib] (100 nM) , please?
Solution: 112%

Exercise: Recorded normalised response for Cc1c(Cn2c(C)nc3c(C(=O)O)cc(N4CCOCC4)cc32)cccc1C(F)(F)F (100 nM) , please?
Solution: 111%

Exercise: Recorded normalised response for CC/C(=C(\c1ccc(O)cc1)c1ccc(OCCN(C)C)cc1)c1ccccc1 [4-hydroxytamoxifen] (100 nM) , please?
Solution: 99.9%

====

Entries and their drug sensitivity score values follow.
System: MCF-10A
Assay: drug sensitivity score (DSS), CellTiter-Glo (DSS (AUC-based score)); higher = stronger drug effect (viability inhibition or cytotoxicity); extreme values may be limits of the assay
Details: incubation time: 72 h
Reply: number alone, nothing else.

Examples with their reported drug sensitivity score follow.
Exercise: Which measured drug sensitivity score belongs to "Cn1cc(CNCC2CCN(c3ncc(C(=O)NO)cn3)CC2)c2ccccc21" , tested on MCF-10A?
Solution: 11.5

Exercise: Which measured drug sensitivity score belongs to "COc1nc(N)nc2c1ncn2[C@@H]1O[C@H](CO)[C@@H](O)[C@@H]1O" , tested on MCF-10A?
Solution: 0

Exercise: Which measured drug sensitivity score belongs to "CCN(CC)CCNC(=O)c1c(C)[nH]c(/C=C2\C(=O)Nc3ccc(F)cc32)c1C" , tested on MCF-10A?
Solution: 0

Next:
Exercise: Which measured drug sensitivity score belongs to "Cc1c(Cn2c(C)nc3c(C(=O)O)cc(N4CCOCC4)cc32)cccc1C(F)(F)F" , tested on MCF-10A?
Solution: 0

Exercise: Which measured drug sensitivity score belongs to "Nc1ccccc1NC(=O)c1ccc(CNc2nccc(-c3cccnc3)n2)cc1" , tested on MCF-10A?
Solution: 1.13

Exercise: Which measured drug sensitivity score belongs to "CC(=O)OC[C@H]1O[C@@H]([S-])[C@H](OC(C)=O)[C@@H](OC(C)=O)[C@@H]1OC(C)=O.CCP(CC)CC.[Au+]" , tested on MCF-10A?
Solution: 1.42

Exercise: Which measured drug sensitivity score belongs to "Cc1cccc(-c2nn3c(c2-c2ccnc4ccc(C(N)=O)cc24)CCC3)n1" , tested on MCF-10A?
Solution: 0

Exercise: Which measured drug sensitivity score belongs to "C[C@]12C=CC(=O)C=C1CC[C@@H]1[C@@H]2[C@@H](O)C[C@@]2(C)[C@H]1CC[C@]2(O)C(=O)CO" , tested on MCF-10A?
Solution: 0

Exercise: Which measured drug sensitivity score belongs to "O=C(NC[C@H](O)CO)c1ccncc1Nc1ccc(I)cc1F" , tested on MCF-10A?
Solution: 21.9

====

Entries and their drug sensitivity score values follow.
System: HCC1143
Assay: drug sensitivity score (DSS), CellTiter-Blue viability (DSS (AUC-based score)); higher = stronger viability inhibition; extreme values may be limits of the assay
Settings: incubation time: 72 h
Reply: number alone, nothing else.

Exercise: Recorded drug sensitivity score for "O=C(NC[C@H](O)CO)c1ccncc1Nc1ccc(I)cc1F" , please?
Solution: 13.8

Exercise: Recorded drug sensitivity score for "COc1nc(N)nc2c1ncn2[C@@H]1O[C@H](CO)[C@@H](O)[C@@H]1O" , please?
Solution: 0

====

System: HCC1143
Experiment: normalised response (% of control), CellTiter-Glo; higher = more viable cells (100 = DMSO, 0 = benzethonium chloride kill control)
Conditions: incubation time: 72 h
MEASUREMENT LABEL: normalised response (%)
Reply with just the number (in %).

Examples with their reported normalised response follow.
Exercise: Which measured normalised response belongs to CC/C(=C(\c1ccc(O)cc1)c1ccc(OCCN(C)C)cc1)c1ccccc1 [4-hydroxytamoxifen] (100 nM) , tested on HCC1143?
Solution: 96.2

Exercise: Which measured normalised response belongs to CCN(CC)CCNC(=O)c1c(C)[nH]c(/C=C2\C(=O)Nc3ccc(F)cc32)c1C [Sunitinib] (10 nM) , tested on HCC1143?
Solution: 108

Exercise: Which measured normalised response belongs to O=S(=O)(c1cccc2cnccc12)N1CCCNCC1 [Fasudil] (500 nM) , tested on HCC1143?
Solution: 101

Next:
Exercise: Which measured normalised response belongs to Cc1c(Cn2c(C)nc3c(C(=O)O)cc(N4CCOCC4)cc32)cccc1C(F)(F)F (100 nM) , tested on HCC1143?
Solution: 101

Exercise: Which measured normalised response belongs to CNC(=O)c1cc(Oc2ccc(NC(=O)Nc3ccc(Cl)c(C(F)(F)F)c3)cc2)ccn1 [Sorafenib] (10 nM) , tested on HCC1143?
Solution: 102
